System: SMMC-7721
ASSAY_TEXT: Antiproliferative activity against human SMMC7721 cells assessed as reduction in cell viability after 48 hrs by MTT assay
Type: functional, cell-based
CONDITION_DETAILS: SMMC-7721, 48 h
The following compounds are shown together with reported pIC50 values.
Interpret pIC50 as the negative base-10 log of the concentration measured in mol/L.

{"columns": ["COMPOUND", "pIC50"],
 "data": [
  ["CC(C)=CCC[C@](C)(/C=C/[C@@H](OC(=O)C=C(C)C)[C@](C)(O)/C=C/C(=O)/C=C/N(C)C)CC=O", 4.99],
  ["CCCC(=O)O[C@@H]1/C=C/[C@@](C)(CCC=C(C)C)C/C=C(/CO)C(=O)/C=C/[C@@]1(C)O", 5.11],
  ["CC(C)=CCC[C@]1(C)/C=C/[C@@H](OC(=O)C=C(C)C)[C@](C)(O)/C=C/C(=O)/C(CCl)=C\\C1", 6.08],
  ["CC(C)=CCC[C@]1(C)/C=C/[C@@H](OC(=O)C=C(C)C)[C@](C)(O)/C=C/C(=O)/C(C(=O)N(C)C)=C\\C1", 5.44]
]}

Turning now to a further compound:
Ask: Look up pIC50 of CC(=O)OC/C1=C/C[C@](C)(CCC=C(C)C)/C=C/[C@@H](OC(=O)C=C(C)C)[C@](C)(OC(C)=O)/C=C/C1=O and report it.
Result: 5.38
